Reported Selective Index (SI) (SI=IC50/MIC) values follow for various molecules
Tested on: M. tuberculosis H37Rv versus NIH 3T3
Assay: Selectivity index
Parameters: species or system Mycobacterium tuberculosis
Settings: IC50 NIH 3T3 / MIC M. tuberculosis H37Rv

Field: example entries. Status: answers known.
{"COMPOUND_STRUCTURE_STRING": "CC1=NN(CNc2ccc(O)cc2)C(=O)C1=NNn1c(-c2ccccc2)nc2ccccc2c1=O", "Selective Index (SI) (SI=IC50/MIC)": "01.16"}
{"COMPOUND_STRUCTURE_STRING": "O=C1NN=C(N=Cc2ccc(O)cc2O)C1=NNn1c(-c2ccccc2)nc2ccccc2c1=O", "Selective Index (SI) (SI=IC50/MIC)": "08.35"}

Record "CC(=O)NCN1N=C(C)C(=NNn2c(-c3ccccc3)nc3ccccc3c2=O)C1=O" ; system M. tuberculosis H37Rv versus NIH 3T3; Selective Index (SI) (SI=IC50/MIC) = 18.16

Observed Selective Index (SI) (SI=IC50/MIC), M. tuberculosis H37Rv versus NIH 3T3, "O=C1NN=C(N=Cc2ccccc2O)C1=NNn1c(-c2ccccc2)nc2ccccc2c1=O" : 16.32

For the molecule "O=C1NN=C(N=Cc2ccccc2)C1=NNn1c(-c2ccccc2)nc2ccccc2c1=O" , the measured Selective Index (SI) (SI=IC50/MIC) on M. tuberculosis H37Rv versus NIH 3T3 was 10.92

Reference source: paper PMC3831729
